From: patent US20020143012A1

measuredOn: Aβ(1-40) peptide (Homo sapiens)
Construct: 10 μL 0.5 mg/mL Aβ(1-40) peptide in 20% HFIP
Sequence (P05067 672-711): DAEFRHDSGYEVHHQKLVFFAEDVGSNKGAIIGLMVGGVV
protocol: BAPA (Beta-Amyloid Peptide Aggregation), pH 6.0, filtration endpoint
Assay type: biochemical
conditionDetails: marked (BAPA2), variant not described; read-out: BAPA (IC50 = μM), value marked (BAPA2)
reportedProperty: IC50

- O=C(O)c1cc(OCc2ccccc2)cc2c1Nc1ccccc1O2: > 50 µM

====

measuredOn: Aβ(1-40) (Homo sapiens)
Construct: Soluble Aβ(1-40) peptide (Bachem, Torrance, Calif.); purchased Bachem, Torrance, Calif
Sequence (P05067 672-711): as above
protocol: BASST (Beta-Amyloid Self-seeding, Thioflavin T), inhibitors of self-seeded amyloid fibril growth
Assay type: biochemical
conditionDetails: 30 μM soluble Aβ(1-40), 37° C. 3 to 5 hours, thioflavin T fluorescence; replicate values
reportedProperty: IC50 (µM)

• O=C(O)c1cc([N+](=O)[O-])cc2c1Nc1cc3ccccc3cc1O2 = 1
• O=C(O)c1cc([N+](=O)[O-])cc2c1Nc1ccc(CCCc3ccc(Cl)c(Cl)c3)cc1O2 = 0.5
• Nc1cc2c(c(C(=O)O)c1)Nc1ccc(CCCc3ccc(Cl)c(Cl)c3)cc1O2 = 3
• O=C(O)c1cc([N+](=O)[O-])cc2c1Nc1ccc(CCC(O)c3ccc(Cl)c(Cl)c3)cc1O2 (stereo not drawn) = 0.6
• O=C(O)c1cc([N+](=O)[O-])cc2c1Nc1cc(-c3ccccc3)ccc1O2 = 1
• O=C(/C=C/c1ccc2c(c1)Oc1cc([N+](=O)[O-])cc(C(=O)O)c1N2)c1ccc(Cl)c(Cl)c1 = 1

====

The reader will find reported IC50 values listed item by item below.
measuredOn: Aβ(1-42) (Homo sapiens)
Construct: Required Aβ(1-42) (California Peptide) is dried from its hexafluoroisopropanol (HFIP) stock solution; purchased California Peptide
Sequence (P05067 672-713): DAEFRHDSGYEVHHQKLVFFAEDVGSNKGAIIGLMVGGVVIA
protocol: BATYM assay, Aβ(1-42) aggregation by Thioflavin T fluorescence
Format: biochemical
conditionDetails: Aβ1-42 final concentration 100 μM, 37° C. 1 day, ThT fluorescence; (P)/(Q) marks undefined
reportedProperty: IC50 (µM)

- O=C(/C=C/c1ccc2c(c1)Oc1cc([N+](=O)[O-])cc(C(=O)O)c1N2)c1ccc(Cl)c(Cl)c1 [Compound 6]: 4.61
- O=C(O)c1cc([N+](=O)[O-])cc2c1Nc1cc3ccccc3cc1O2 [Compound 21]: 6.7
- O=C(O)c1cc([N+](=O)[O-])cc2c1Nc1ccc(CCCc3ccc(Cl)c(Cl)c3)cc1O2 [Compound 7]: 1.88
- O=C(O)c1cc([N+](=O)[O-])cc2c1Nc1cc(-c3ccccc3)ccc1O2 [Compound 2]: 4.15
- O=C(O)c1cc([N+](=O)[O-])cc2c1Nc1ccc(CCC(O)c3ccc(Cl)c(Cl)c3)cc1O2 (stereo not drawn) [Compound 8]: 4.18
- Nc1cc2c(c(C(=O)O)c1)Nc1ccc(CCCc3ccc(Cl)c(Cl)c3)cc1O2 [Compound 9]: 8.75

====

measuredOn: Aβ(1-40) peptide (Homo sapiens)
Construct: 10 μL 0.5 mg/mL Aβ(1-40) peptide in 20% HFIP
protocol: BAPA (Beta-Amyloid Peptide Aggregation), pH 6.0, filtration endpoint
Assay type: biochemical
conditionDetails: 33 μM Aβ(1-40), pH 6.0, 2 to 4 hours at room temperature; (Q) mark undefined; read-out: BAPA (IC50 = μM)
reportedProperty: IC50 (µM)

* O=C(O)c1cc([N+](=O)[O-])cc2c1Nc1ccc(CCC(O)c3ccc(Cl)c(Cl)c3)cc1O2 (stereo not shown) | 100
* O=C(O)c1cc([N+](=O)[O-])cc2c1Nc1cc(-c3ccccc3)ccc1O2 | 5
* O=C(O)c1cc([N+](=O)[O-])cc2c1Nc1ccc(CCc3ccc(Cl)c(Cl)c3)cc1O2 | 0.9
* Nc1cc2c(c(C(=O)O)c1)Nc1ccc(CCCc3ccc(Cl)c(Cl)c3)cc1O2 | 86
* O=C(O)c1cc([N+](=O)[O-])cc2c1Nc1cc3ccccc3cc1O2 | 67

====

reportedProperty: melting point

• O=C(O)c1cc([N+](=O)[O-])cc2c1Nc1ccc(CCc3ccc(Cl)c(Cl)c3)cc1O2 = > 250 °C
• Nc1cc2c(c(C(=O)O)c1)Nc1ccc(CCCc3ccc(Cl)c(Cl)c3)cc1O2 = 213 to 216 °C
• O=C(O)c1cc([N+](=O)[O-])cc2c1Nc1ccc(CCC(O)c3ccc(Cl)c(Cl)c3)cc1O2 (centres unmarked) = 218 to 220 °C
• O=C(/C=C/c1ccc2c(c1)Oc1cc([N+](=O)[O-])cc(C(=O)O)c1N2)c1ccc(Cl)c(Cl)c1 = > 200 °C
• O=C(O)c1cc([N+](=O)[O-])cc2c1Nc1cc3ccccc3cc1O2 = > 230 °C
